The origin of these recorded values is the supplement of paper PMC10981050.

- Test system: MARIMO
- test_details: cell viability relative to vehicle control; higher = less cytotoxic;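 note: after 48 h exposure read by CellTiter-Glo luminescence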
- experimental_setup: 10 µM; SRSF2 genotype: SRSF2 P95H/wt
recorded_endpoint: cell viability (%)
One number for each entry, in %.

Recorded cell viability, per entry:
{"columns": ["molecule", "study_target", "cell viability [%]"],
 "data": [
  ["CC(C)Cc1ccc([C@@H](C)C(=O)NS(C)(=O)=O)cc1 [Reparixin (Repertaxin)]", "MARIMO", 97.6],
  ["C=CCc1cc(OC)c(O)c(C(=O)NCCO)c1 [Alibendol]", "MARIMO", 98.2],
  ["CC(C)Oc1ccc(-c2cnc3c(-c4ccnc5ccccc45)cnn3c2)cc1", "MARIMO", 86.1],
  ["Nc1nc(NC2CC2)cc(-c2cccc(Cl)c2Cl)n1", "MARIMO", 41.3]
]}

Note: attention shifts to another entry.
Request - read-out cell viability | tested on MARIMO | molecule O.O=C([O-])c1ncccc1O.O=C([O-])c1ncccc1[O-].[H+].[O]=[V][OH] [VO-Ohpic trihydrate]
106

* * *

I'd be grateful if you could share measured cell viability for these entries.
- System: OCI-AML2
- test_details: cell viability relative to vehicle control; higher = less cytotoxic
- experimental_setup: 10 µM; SRSF2 genotype: wt/wt
Structures can show the parent of a compound that is named as a salt.

Solved entries:
{"columns": ["compound", "recorded_endpoint", "result"],
 "data": [
  ["CCOC(=O)Nc1cc(-c2ccc(C)c(NS(C)(=O)=O)c2)nn2c(C)nnc12 [Bromosporine]", "cell viability", "4.94%"],
  ["CC(=O)O[C@H]1C[C@@H]2CC[C@@H]3[C@H](CC[C@@]4(C)[C@H]3C[C@H]([N+]3(C)CCCCC3)[C@@H]4OC(C)=O)[C@@]2(C)C[C@@H]1N1CCCCC1 [Vecuronium Bromide]", "cell viability", "109%"],
  ["O=C(O)[C@H](O)c1ccccc1 [(R)-(-)-Mandelic acid]", "cell viability", "106%"],
  ["CC1(C)CC[C@]2(C(=O)O[C@@H]3O[C@H](CO)[C@@H](O)[C@H](O)[C@H]3O)CC[C@]3(C)C(=CC[C@@H]4[C@@]5(C)CC[C@H](O[C@@H]6O[C@H](C(=O)O)[C@@H](O)[C@H](O)[C@H]6O[C@@H]6O[C@H](CO)[C@@H](O)[C@H](O)[C@H]6O)C(C)(C)[C@@H]5CC[C@]43C)[C@@H]2C1 [Ginsenoside Ro]", "cell viability", "109%"],
  ["Cc1ccc(OCC(O)C(C)NC(C)C)c2c1CCC2 (stereo not given)", "cell viability", "99%"]
]}

Please give cell viability for each item listed below.
1. NC(=O)c1cccc2cn(-c3ccc([C@@H]4CCCNC4)cc3)nc12 [MK-4827(Niraparib) tosylate]
2. COc1cc(O)c(C(=O)/C=C/c2ccccc2)c(OC)c1 [Flavokawain B]
3. CC(C)=C[C@H]1C[C@](C)(O)[C@@H]2[C@H]3CC[C@@H]4[C@@]5(C)CC[C@H](O[C@@H]6OC[C@H](O)[C@H](O[C@@H]7O[C@H](CO)[C@@H](O)[C@H](O)[C@H]7O[C@@H]7OC[C@@H](O)[C@H](O)[C@H]7O)[C@H]6O[C@@H]6O[C@@H](C)[C@H](O)[C@@H](O)[C@H]6O)C(C)(C)[C@@H]5CC[C@@]4(C)[C@@]34CO[C@@]2(C4)O1 [Jujuboside B]
4. C[C@@H](OC[C@@]1(c2ccccc2)CC[C@]2(CCC(=O)N2)CN1)c1cc(C(F)(F)F)cc(C(F)(F)F)c1 [Rolapitant]

1. 47.3%
2. 25.2%
3. 108%
4. 39.1%

Please report cell viability for every entry that follows.
1. COc1ccc(C(=O)C(=O)c2ccc(OC)cc2)cc1
2. C[C@@H](Nc1nc(N[C@H](C)C(F)(F)F)nc(-c2cccc(Cl)n2)n1)C(F)(F)F [Vorasidenib (AG-881)]
3. COc1ccc(-c2ccc3c(N4CCOC[C@@H]4C)nc(N4CCOC[C@@H]4C)nc3n2)cc1CO
4. O=C(CCNC(=O)c1ccc(OC(F)(F)F)cc1)N[C@@H]1CCCc2ccccc21

1: 90.8%; 2: 98.3%; 3: 27.7%; 4: 106%

# return cell viability for each item in the list
1. CC(C)(C)C#Cc1cc(N(C(=O)[C@H]2CC[C@H](C)CC2)[C@H]2CC[C@H](O)CC2)c(C(=O)O)s1 [Lomibuvir (VX-222, VCH-222)]
2. CNC(=O)c1cccc(-c2ccc3c(N4CCOC[C@@H]4C)nc(N4CCOC[C@@H]4C)nc3n2)c1 [Vistusertib (AZD2014)]
3. CCCCCCCCCCCCN1CCCCCC1=O [Laurocapram]

["120%", "28.8%", "73.7%"]

Would you mind giving cell viability for every compound in the list below?
1. CN(C)CC(c1ccc(O)cc1)C1(O)CCCCC1 (stereo not given) [Desvenlafaxine Succinate]
2. O=C(O)CCc1ccc(O)cc1O [Hydroumbellic acid]
3. Cc1[nH]nc2ccc(-c3cncc(OC[C@@H](N)Cc4ccccc4)c3)cc12

1: 90%; 2: 106%; 3: 6.55%

Field: cell viability. Fill in for each record below.
1. O=C(Nc1cc(C(F)(F)F)cc(C(F)(F)F)c1)c1cc(Cl)ccc1O
2. Cc1ccc([N+](=O)[O-])cc1S(=O)(=O)N(C)/N=C/c1cnc2ccc(Br)cn12
3. O=C(NC(Cc1cc(=O)[nH]c2ccccc12)C(=O)O)c1ccc(Cl)cc1 (stereo not given) [Rebamipide]

1: 8.72%; 2: 17.4%; 3: 102%

Batch request: cell viability per item, same order as input.
1. COCC(=O)Nc1cc(Sc2ccccc2)ccc1N=C(NC(=O)OC)NC(=O)OC [Febantel]
2. O=C(c1cccc(Br)c1)N1CCC(N2CCCC2)CC1
3. O=C(NOCC1CC1)c1ccc(F)c(F)c1Nc1ccc(I)cc1Cl
4. O=[N+]([O-])c1ccc2c(c1)S(=O)(=O)C=C2 [Stattic]

102%
101%
46.5%
0.06%

# per-item lookup of cell viability; items listed below
1. NC(=O)c1cccc(-c2cc(Nc3ccc(OC(F)(F)F)cc3)ncn2)c1
2. CNC(=O)Nc1ccc(-c2nc(N3CC4CCC(C3)O4)c3cnn(C4CCC5(CC4)OCCO5)c3n2)cc1

1. 55.3%
2. 28.7%

Working through the 2 compounds below one at a time, give cell viability for each.
1. COc1ccc(-c2coc3cc(O)cc(O)c3c2=O)cc1 [Biochanin A (4-Methylgenistein)]
2. NCCOc1cc(C(=O)Nc2cc(OCCN)c3ccccc3n2)nc(C(=O)Nc2cc(OCCN)c3ccccc3n2)c1 [Pyridostatin Trifluoroacetate Salt]

79.5%
17.8%
